Reference source for all entries: the NIST ThermoML archive (doi:10.1021/je050544m)

test summary: activity coefficient (dimensionless); of the first substance listed, at infinite dilution; xn = mol fraction of the nth substance listed
measurement parameters: 343 K; 101 kPa; Liquid; Chromatography; x1 = 0
Each entry below carries its reported activity coefficient.

# compound, activity coefficient
records = [
    ("CCOC(C)=O [ethyl acetate] + CCn1cc[n+](C)c1.F[B-](F)(F)F", 3.32),
    ("CC(C)O [propan-2-ol] + CCCCCCn1cc[n+](C)c1.F[B-](F)(F)F", 1.57),
    ("C=CCCCC [hex-1-ene] + CCCCn1cc[n+](C)c1.F[B-](F)(F)F", 30.5),
    ("CC(C)=O [acetone] + CCCCn1cc[n+](C)c1.F[B-](F)(F)F", 1.11),
    ("CCc1ccccc1 [ethylbenzene] + CCCCn1cc[n+](C)c1.F[B-](F)(F)F", 7.2),
    ("CC(C)CC(C)(C)C [2,2,4-trimethylpentane] + CCCCCCCC[n+]1ccn(C)c1.F[B-](F)(F)F", 17),
    ("CCCCCCC [heptane] + CCn1cc[n+](C)c1.F[B-](F)(F)F", 139),
    ("c1ccccc1 [benzene] + CCCCCCn1cc[n+](C)c1.F[B-](F)(F)F", 1.68),
    ("CO [methanol] + CCCCn1cc[n+](C)c1.F[B-](F)(F)F", 1.07),
    ("CCCCCC [hexane] + CCCCn1cc[n+](C)c1.F[B-](F)(F)F", 67.5),
    ("ClC(Cl)(Cl)Cl [tetrachloromethane] + CCCCCCn1cc[n+](C)c1.F[B-](F)(F)F", 3.61),
]

---

test summary: activity coefficient (dimensionless); of the first substance listed, at infinite dilution; xn = mol fraction of the nth substance listed
measurement parameters: 303 K; 101 kPa; Liquid; Chromatography; x1 = 0
Define the label as condition met when activity coefficient is strictly less than 20 and as condition not met in all remaining cases.

# molecule, group
data = [
    ("C1CCCCC1 [cyclohexane] + CCCCCCCC[n+]1ccn(C)c1.F[B-](F)(F)F", "condition met"),
    ("C=CCCCC [hex-1-ene] + CCCCn1cc[n+](C)c1.F[B-](F)(F)F", "condition not met"),
    ("C1CCCCC1 [cyclohexane] + CCCCn1cc[n+](C)c1.F[B-](F)(F)F", "condition not met"),
    ("CCCCCCC [heptane] + CCCCn1cc[n+](C)c1.F[B-](F)(F)F", "condition not met"),
    ("CCCCCC [hexane] + CCCCCCCC[n+]1ccn(C)c1.F[B-](F)(F)F", "condition met"),
    ("CCCCCCC [heptane] + CCn1cc[n+](C)c1.F[B-](F)(F)F", "condition not met"),
    ("CC(C)CC(C)(C)C [2,2,4-trimethylpentane] + CCCCCCn1cc[n+](C)c1.F[B-](F)(F)F", "condition not met"),
    ("C1CCCCC1 [cyclohexane] + CCn1cc[n+](C)c1.F[B-](F)(F)F", "condition not met"),
    ("CO [methanol] + CCCCCCn1cc[n+](C)c1.F[B-](F)(F)F", "condition met"),
    ("C=CCCCC [hex-1-ene] + CCCCCCn1cc[n+](C)c1.F[B-](F)(F)F", "condition met"),
    ("CO [methanol] + CCn1cc[n+](C)c1.F[B-](F)(F)F", "condition met"),
    ("C=CCCCC [hex-1-ene] + CCn1cc[n+](C)c1.F[B-](F)(F)F", "condition not met"),
    ("CO [methanol] + CCCCCCCC[n+]1ccn(C)c1.F[B-](F)(F)F", "condition met"),
    ("CCCCCCC [heptane] + CCCCCCn1cc[n+](C)c1.F[B-](F)(F)F", "condition not met"),
    ("c1ccccc1 [benzene] + CCn1cc[n+](C)c1.F[B-](F)(F)F", "condition met"),
    ("c1ccccc1 [benzene] + CCCCCCn1cc[n+](C)c1.F[B-](F)(F)F", "condition met"),
    ("CC(C)CC(C)(C)C [2,2,4-trimethylpentane] + CCCCn1cc[n+](C)c1.F[B-](F)(F)F", "condition not met"),
    ("c1ccccc1 [benzene] + CCCCCCCC[n+]1ccn(C)c1.F[B-](F)(F)F", "condition met"),
]
